This collection of values is drawn from PubChem BioAssay.

test: inhibitors of TNFa-induced NFkB p65 translocation, primary screen, imaging, HUVEC, MLSMR starter and 10KST1 sets (AID 438); details: HUVEC TNFa-induced p65 nuclear translocation; measured here: nuclei count (cytotoxicity indicator), at 2.08 µM;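 also: compound added about 3h40 before a 20 min TNFalpha stimulation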

| Compound | cell count |
| --- | --- |
| CC1(C)CC(=O)c2cnc(NC(=O)CSc3nc4ccccc4o3)nc2C1 | 257 |
| Cc1cnc(C(=O)Nc2ccc(-n3cnnn3)cc2)cn1 | 508 |
| CC1(C)CC(=O)C(C=NCCO)=C(O)C1 | 416 |
| Cc1ccc2c(c1)-c1cc(C)nn1C(c1ccc3c(c1)OCO3)N2 (stereo unspecified) | 651 |
| COc1ccc(/C(O)=C2/C(=O)C(=O)N(CC3CCCO3)C2c2cccc(OC)c2)cc1 (stereo unspecified) | 717 |
| CCNc1nc(NC(C)C)nc(N(C#N)CCOc2ccc(Cl)cc2Cl)n1 | 603 |
| Cc1ccc(NC(=O)C2CCCN2C(=O)Oc2ccccc2)cc1 (stereo unspecified) | 344 |
| Cc1noc(C)c1C(=O)Nc1sc(C)c(C)c1C#N | 264 |
| O=S(=O)(c1ccc(OCC(O)CN2CCc3ccccc3C2)cc1)N1CCOCC1 (stereo unspecified) | 749 |
| Cc1cc(O)c(C2(C(F)(F)F)NCCNC2=O)cc1C (stereo unspecified) | 560 |
| COc1ccc(OC)c(NC(=O)c2cn(C)c(=O)c3cc(OC)c(OC)cc23)c1 | 782 |

###

assay: Primary imaging screen for DUSP6 inhibitors that restore phospho-Erk in transfected HeLa cells, chemical complementation (AID 609); conditions: HeLa MKP-3 transfected, phospho-Erk imaging KS statistic; measured here: nuclear c-Myc green intensity z-score; at 10 µM; cells stimulated with TPA for 15 min
Property name: z-score

| Molecule | Property name | Recorded result |
| --- | --- | --- |
| C1COC(NC(C2CC2)C2CC2)=N1 | z-score | 0.285 |
| CC[C@H]1CN2CCc3cc(OC)c(OC)cc3[C@@H]2C[C@@H]1C[C@H]1NCCc2cc(OC)c(OC)cc21 | z-score | -0.649 |
| CCCc1cc(=O)[nH]c(=S)[nH]1 | z-score | -0.47 |
| CN(C)/C=C1\N=C(c2cccs2)OC1=O | z-score | -0.714 |
| CCOC(=O)C(Oc1ccc(=O)[nH]n1)C(C)=O (stereo not given) | z-score | 0.196 |
| CCCCNC(=O)NS(=O)(=O)c1ccc(C)cc1 | z-score | -0.348 |
| CCOc1ccc2nc(S(N)(=O)=O)sc2c1 | z-score | 0.726 |
| CN(C)CCOC(c1ccccc1)c1ccccc1 | z-score | 0.456 |
| COc1ccc2c(c1)c(CC(=O)O)c(C)n2C(=O)c1ccc(Cl)cc1 | z-score | -1.27 |
| CC(=O)O[C@@]12CO[C@@H]1C[C@H](O)[C@@]1(C)C(=O)[C@H](O)C3=C(C)[C@@H](OC(=O)[C@H](O)[C@@H](NC(=O)OC(C)(C)C)c4ccccc4)C[C@](O)([C@@H](OC(=O)c4ccccc4)[C@H]21)C3(C)C | z-score | 0.683 |

###

Entries and their inhibition of aggregation values follow.
test: reduction of polyQ htt aggregates in cells – imaging, exon1htt(103Q)mCFP cells, high-content imaging, primary screen (AID 483); conditions: exon1htt(103Q)mCFP cell line, aggregate imaging, at 2 µM; stronger effect = higher value;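 also: compound exposure lasted 3 days before fixation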
Property name: inhibition of aggregation (%)

| Molecule | Property name | Recorded result |
| --- | --- | --- |
| COCCN1C(=O)C(=O)/C(=C(/O)c2cccc(OC)c2)C1c1ccncc1 (stereo unspecified) | inhibition of aggregation | 17.9 |
| Cc1ccnc(NC(=O)Nc2ccc(F)cc2)c1 | inhibition of aggregation | 9.2 |
| O=C(N1CCCCCC1)N1CCN(C(=O)N2CCOCC2)CC1 | inhibition of aggregation | 7.7 |
| NC(=O)c1nsnc1-c1ccccc1O | inhibition of aggregation | -3.4 |
| O=C1[C@@H]2C(c3ccccc3Cl)=NO[C@@H]2C(=O)N1Cc1ccccc1 | inhibition of aggregation | -2.9 |
| Cc1cccc(NC(=O)CCn2ccnc2C)c1 | inhibition of aggregation | -6.6 |

###

experiment: blockers of RIG-like receptor reporter activation – cell-based, Sendai virus stimulus, luciferase, 10K MLSCN set, TLR/RLR signaling modifier project, primary screen (AID 602276); details: HEK293 RL24 IRF3 luciferase reporter, at 10 µM, stronger effect = higher value;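 also: firefly luciferase from ISG56 promoter only with Renilla not read in this screen; 0% = Sendai virus plus DMSO and 100% = medium plus DMSO without virus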
Assign class by inhibition: not lower than 10% means yes; lower than 10% means no.

| Molecule | Category label |
| --- | --- |
| Cc1ccc(NC(=O)c2ccc(NS(=O)(=O)c3c(C)noc3C)cc2)cc1C | no |
| CN1CC[n+]2cnc3ccccc3c21 | yes |
| COc1ccccc1-n1c(C)nnc1SCC(N)=O | yes |
| COc1ccc(OC)c(C2=NOC(C(=O)NCCN3CCOCC3)C2)c1 (stereo unspecified) | yes |
| CC(C)OC(=O)CSc1nnnn1-c1ccc2c(c1)OCCO2 | no |
| O=C(CSc1nnc(Cn2nnc(-c3ccccc3)n2)n1-c1ccccc1)Nc1ccc(F)cc1 | yes |
| COc1ccc(-c2noc(COc3ccc4ccccc4c3Br)n2)cc1OC | no |
| Cc1ccc(Cn2c(SCC(C)C)nc3c2c(=O)n(C)c(=O)n3C)cc1 | yes |
| CCc1cccc(NS(=O)(=O)c2c(C)n[nH]c2C)c1 | no |
| CC(Oc1ccc(Cl)cc1Cl)c1nc(-c2ccc(NC(=O)c3cccnc3)cc2)no1 (stereo unspecified) | no |
| Cc1ccnc(NC(=O)CCC(=O)N(CC(=O)NC2CCCCC2)c2cccc(C)c2C)c1 | yes |

###

assay: blockers of RIG-like receptor reporter activation – cell-based, Sendai virus stimulus, luciferase, 10K MLSCN set, TLR/RLR signaling modifier project, primary screen (AID 602276); settings: HEK293 RL24 IRF3 luciferase reporter, at 10 µM, stronger effect = higher value;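 also: firefly luciferase from ISG56 promoter only with Renilla not read in this screen; 0% = Sendai virus plus DMSO and 100% = medium plus DMSO without virus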
Entries and their inhibition values follow.

| Molecule | inhibition (%) |
| --- | --- |
| CCSc1ncc(C#N)c(=O)[nH]1 | 2.6 |
| CCOc1ccc2nc(NC(=O)C(NS(=O)(=O)c3cccs3)C(C)C)sc2c1 (stereo not given) | 18.1 |
| CCN1CCN(C(=O)c2ccc3c(=O)n(C4CCCC4)c(=S)[nH]c3c2)CC1 | -15.8 |
| CC1(C)O[C@@H]2C[C@H]3[C@@H]4C[C@H](F)C5=CC(=O)C=C[C@]5(C)[C@@]4(F)[C@@H](O)C[C@]3(C)[C@]2(C(=O)CO)O1 | 5.68 |
| O=C(CCn1nc(-c2ccccc2)ccc1=O)N1CCCC1 | 6.69 |
| CCOC(=O)CSc1nc2ccccc2c(=O)n1NC(=O)c1ccccc1 | 1.47 |
| OCc1nc2ccccc2n1CC(O)Cn1ccc2ccccc21 (stereo not given) | 1.37 |
| O=c1oc(-c2ccco2)nc2ccccc12 | 13.9 |
| Cc1cc(NS(=O)(=O)c2ccccc2)n(-c2ccccc2)n1 | -0.656 |
| COc1ccc(S(=O)(=O)NC2CCCCC2)c(C)c1C | 20.3 |
| CSc1nc(N2CCOCC2)c2c(c1C#N)CCCCC2 | 23 |
| CC(C)n1c(=NC(=O)c2ccco2)c(C#N)cc2c(=O)n3ccccc3cc21 | -23.8 |
| Cc1nnc(SCC(=O)Nc2ccc3c(c2)OCCO3)n1CC1CCCO1 (stereo not given) | 14.8 |
| Cc1ccc(S(=O)(=O)NCCCCC(NC(=O)OC(C)(C)C)C(=O)O)cc1 (stereo not given) (tested in a mixture with another compound) | 15.2 |
| CCOc1ccccc1Nc1nc2ccccc2[nH]1 | -18.9 |
| CCOCCCNc1ncnc2c1[nH]c1ccccc12 | -24.7 |
| Cc1ccccc1CNS(=O)(=O)c1ccc2c(c1)OCCO2 | 7.7 |
| CCCCC(c1nnnn1CS(=O)(=O)c1ccc(C)cc1)N1CCN(c2ccccc2)CC1 (stereo not given) | 32 |
| CC(=O)SCC(=O)N=c1sc2cc(F)ccc2n1C | 3.65 |
| O=C(CCn1c(=O)oc2ccccc21)NCCN1CCc2ccccc2C1 | 15.7 |
| COc1cc(NC(=O)Cc2nn(C)c(=O)c3ccccc23)cc(OC)c1 | -12.7 |
| Cc1cccc(CN2CCN(C(c3ccccc3)c3ccc(Cl)cc3)CC2)c1 (stereo not given) | 6.06 |
| CC(C)=CC/C=C1\CCC(C(=O)O)C(C(=O)O)C1 (stereo not given) | 15.6 |
| CCOC(=O)CNC(=O)CSc1ncnc2c1cnn2-c1ccccc1 | 7.97 |
| CC(Oc1ccc2oc(-c3ccccc3)c(C(=O)O)c2c1)C(=O)O (stereo not given) | 7.55 |
| Cn1cccc1-c1nc2ccc(NC(=O)c3ccco3)cc2[nH]1 | -37.6 |
| Cc1ccc(Cn2c(C)nc3c(c2=O)c2nc4ccccc4nc2n3Cc2ccco2)cc1 | 16.5 |
| CC(C(=O)NCCCN1CCOCC1)n1cccc1C(=O)c1ccccc1 (stereo not given) | 17.2 |
| O=C(NC12CC3CC(CC(C3)C1)C2)C1CCCN1C(=O)NC1CCCCC1 (stereo not given) | -2.83 |
| c1ccc2c(NC3CCCC3)nnc(NC3CCCC3)c2c1 | 7.77 |
| COC(=O)c1cc(NS(=O)(=O)c2ccc3c(c2)CCC(=O)N3)cc(C(=O)OC)c1 | -11.6 |
| COCCn1c(SCC(=O)Nc2nnc(C)s2)nnc1-c1c[nH]c2ccccc12 | 5.93 |
| Cc1ccc(S(=O)(=O)Cc2ccc(C(=O)NCc3ccc4c(c3)OCO4)o2)cc1 | 9.39 |
| CCCn1c(NCc2ccc3c(c2)OCO3)nc2ccccc21 | -9.91 |
| COc1ccc(CCNC(=O)c2cc(-c3cc(C)c(C)cc3O)n[nH]2)cc1OC | 9.16 |
| Cc1nc2ccc(S(=O)(=O)NCC(=O)O)cc2s1 | -1.77 |
| COc1cccc2c(=O)c3c(cnn3C)n(C)c12 | -10.8 |
| O=C1CC(=O)N(Cc2cccs2)C(=O)N1 | 1.08 |
| CCn1c(=O)cc(OCC(=O)NCCCN2CC(C)CC(C)C2)c2ccccc21 (stereo not given) | 69.4 |
| O=S(=O)(NCC1CCCO1)c1ccc(S(=O)(=O)N2CCc3ccccc3C2)cc1 (stereo not given) | 19.5 |
| O=C(CSc1nc2ccccc2n1CC(=O)N1CCCC1)Nc1nccs1 | 2.67 |
| COc1ccccc1-n1cnnc1SCC(=O)c1ccc[nH]1 | 9.86 |
| Cn1cccc1C1NC(=O)c2c(sc3c2CCC(C(C)(C)C)C3)N1 (stereo not given) | -3.95 |
| COC(=O)c1ccccc1NC(=O)Nc1cc(C)cc(C)n1 | 6.32 |
| O=C(CCCn1c(=O)c2sccc2n(CC(=O)NCc2ccco2)c1=O)NCc1ccco1 | 13.9 |
